Origin of values: patent US7173019B2

EC50 by entry:
- STUDY_SYSTEM: human platelet heparanase (Homo sapiens, UniProt Q9Y251)
- Construct: 10 ng of purified human platelet heparanase; from tissue; host or cells: human platelets
- Sequence (Q9Y251 158-543 limits assumed): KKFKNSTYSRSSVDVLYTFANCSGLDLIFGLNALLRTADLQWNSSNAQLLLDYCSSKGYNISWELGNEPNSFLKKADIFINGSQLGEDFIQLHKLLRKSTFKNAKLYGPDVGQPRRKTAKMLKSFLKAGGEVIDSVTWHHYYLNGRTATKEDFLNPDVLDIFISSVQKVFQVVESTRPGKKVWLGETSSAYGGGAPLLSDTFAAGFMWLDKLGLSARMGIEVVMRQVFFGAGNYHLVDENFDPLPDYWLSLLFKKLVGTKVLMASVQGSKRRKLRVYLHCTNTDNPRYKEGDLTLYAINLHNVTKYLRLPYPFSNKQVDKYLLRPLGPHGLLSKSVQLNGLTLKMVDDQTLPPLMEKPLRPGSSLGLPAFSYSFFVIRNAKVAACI
- Sequence (Q9Y251 36-109 limits assumed): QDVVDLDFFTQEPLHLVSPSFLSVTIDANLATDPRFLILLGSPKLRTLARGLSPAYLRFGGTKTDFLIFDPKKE
- PROTOCOL: Heparanase inhibition, 3H-radiolabelled HS cleavage assay
- Format: biochemical
- CONDITIONS_USED: heparanase inhibition

Worked examples follow.
MOLECULE	EC50
O=S(=O)(O)OC[C@H]1O[C@@](COS(=O)(=O)O)(O[C@H]2O[C@H](COS(=O)(=O)O)[C@@H](OS(=O)(=O)O)[C@H](OS(=O)(=O)O)[C@H]2OS(=O)(=O)O)[C@@H](OS(=O)(=O)O)[C@@H]1OS(=O)(=O)O [Sucrose octasulfate, reference compound]	>30 µg/mL
O=S(=O)(O)OC1C=CC(N(Cc2ccc(CN(C3C=CC(OS(=O)(=O)O)C(OS(=O)(=O)O)C3OS(=O)(=O)O)C3C=CC(OS(=O)(=O)O)C(OS(=O)(=O)O)C3OS(=O)(=O)O)cc2)C2C=CC(OS(=O)(=O)O)C(OS(=O)(=O)O)C2OS(=O)(=O)O)C(OS(=O)(=O)O)C1OS(=O)(=O)O (stereo not drawn) [Compound 4e]	9 µg/mL

Alright, here's another molecule for you.
Would you kindly share the measured EC50 for O=S(=O)(O)OC1C(OS(=O)(=O)O)C(OS(=O)(=O)O)C(N(Cc2cccc(CN(C3C(OS(=O)(=O)O)C(OS(=O)(=O)O)C(OS(=O)(=O)O)C(OS(=O)(=O)O)C3OS(=O)(=O)O)C3C(OS(=O)(=O)O)C(OS(=O)(=O)O)C(OS(=O)(=O)O)C(OS(=O)(=O)O)C3OS(=O)(=O)O)c2)C2C(OS(=O)(=O)O)C(OS(=O)(=O)O)C(OS(=O)(=O)O)C(OS(=O)(=O)O)C2OS(=O)(=O)O)C(OS(=O)(=O)O)C1OS(=O)(=O)O (stereo not drawn) [Compound 5d] ?
6 µg/mL
